Experiment: Tmax in healthy human at 2000 mg, po administered as single dose measured after 72 hrs by HPLC method
Details: in vivo
Recorded metric: Tmax

The recorded Tmax for C[C@@H]([C@H](N)C(=O)N[C@H](C(=O)O)[C@H]1O[C@@H](n2ccc(=O)[nH]c2=O)[C@H](O)[C@@H]1O)[C@H](O)c1ccc(O)cn1 [NIKKOMYCIN] is 4 h

====

Test: Cmax in healthy human at 1500 mg, po administered as single dose measured after 72 hrs by HPLC method
Details: in vivo
Recorded metric: Cmax (ng/mL)
State the answer as a number, implicitly in ng/mL.

The recorded Cmax for "C[C@@H]([C@H](N)C(=O)N[C@H](C(=O)O)[C@H]1O[C@@H](n2ccc(=O)[nH]c2=O)[C@H](O)[C@@H]1O)[C@H](O)c1ccc(O)cn1" is 4850

====

Assay: Relative bioavailability based on AUC (0 to infinity) in healthy human at 1750 […], po administered as single dose by HPLC method
Type: ADME, organism-based
Details: in vivo
Recorded metric: bioavailability (%)
State the answer as a number, implicitly in %.

The recorded bioavailability for "C[C@@H]([C@H](N)C(=O)N[C@H](C(=O)O)[C@H]1O[C@@H](n2ccc(=O)[nH]c2=O)[C@H](O)[C@@H]1O)[C@H](O)c1ccc(O)cn1" is 47

====

Assay: AUC (0 to infinity) in healthy human at 2000 mg, po administered as single dose measured after 72 hrs by HPLC method
Details: plasma
Recorded metric: AUC(0-inf) (ng·h/mL)
State the answer as a number, implicitly in ng·h/mL.

The recorded AUC(0-inf) for "C[C@@H]([C@H](N)C(=O)N[C@H](C(=O)O)[C@H]1O[C@@H](n2ccc(=O)[nH]c2=O)[C@H](O)[C@@H]1O)[C@H](O)c1ccc(O)cn1" is 40700

====

Assay: Cmax in healthy human at 1000 mg, po administered as single dose measured after 72 hrs by HPLC method
Details: in vivo
Recorded metric: Cmax (ng/mL)
State the answer as a number, implicitly in ng/mL.

The recorded Cmax for "C[C@@H]([C@H](N)C(=O)N[C@H](C(=O)O)[C@H]1O[C@@H](n2ccc(=O)[nH]c2=O)[C@H](O)[C@@H]1O)[C@H](O)c1ccc(O)cn1" is 5140

====

Experiment: AUC (0 to infinity) in healthy human at 1000 mg, po administered as single dose measured after 72 hrs by HPLC method
Details: plasma
Recorded metric: AUC(0-inf) (ng·h/mL)
State the answer as a number, implicitly in ng·h/mL.

The recorded AUC(0-inf) for "C[C@@H]([C@H](N)C(=O)N[C@H](C(=O)O)[C@H]1O[C@@H](n2ccc(=O)[nH]c2=O)[C@H](O)[C@@H]1O)[C@H](O)c1ccc(O)cn1" is 32500

====

Assay: First-order absorption rate constant in healthy human at 250 to 2000 mg, po administered as single dose by HPLC method
Conditions: in vivo
Recorded metric: Ka (s⁻¹)
State the answer as a number, implicitly in s⁻¹.

The recorded Ka for "C[C@@H]([C@H](N)C(=O)N[C@H](C(=O)O)[C@H]1O[C@@H](n2ccc(=O)[nH]c2=O)[C@H](O)[C@@H]1O)[C@H](O)c1ccc(O)cn1" is 0.000113

====

Experiment: AUC (0 to t) in healthy human at 1500 […], po administered as single dose measured after 72 hrs by HPLC method
Assay type: ADME, organism-based
Parameters: time < 72 hr, route oral
Conditions: plasma
Recorded metric: AUC(0-t) at 72 h (ng·h/mL)
State the answer as a number, implicitly in ng·h/mL.

The recorded AUC(0-t) at 72 h for "C[C@@H]([C@H](N)C(=O)N[C@H](C(=O)O)[C@H]1O[C@@H](n2ccc(=O)[nH]c2=O)[C@H](O)[C@@H]1O)[C@H](O)c1ccc(O)cn1" is 30300

====

Experiment: AUC (0 to t) in healthy human at 1000 mg, po administered as single dose measured after 72 hrs by HPLC method
Conditions: plasma
Recorded metric: AUC(0-t) at 72 h (ng·h/mL)
State the answer as a number, implicitly in ng·h/mL.

The recorded AUC(0-t) at 72 h for C[C@@H]([C@H](N)C(=O)N[C@H](C(=O)O)[C@H]1O[C@@H](n2ccc(=O)[nH]c2=O)[C@H](O)[C@@H]1O)[C@H](O)c1ccc(O)cn1 [NIKKOMYCIN] is 32100

====

Test: Tmax in healthy human at […], po administered as single dose measured after 72 hrs by HPLC method
Format: ADME, organism-based
Set-up: route oral
Conditions: in vivo
Recorded metric: Tmax
A complete answer gives the number followed by the unit.

The recorded Tmax for "C[C@@H]([C@H](N)C(=O)N[C@H](C(=O)O)[C@H]1O[C@@H](n2ccc(=O)[nH]c2=O)[C@H](O)[C@@H]1O)[C@H](O)c1ccc(O)cn1" is 2 h

====

Experiment: AUC (0 to t) in healthy human at 2000 […], po administered as single dose measured after 72 hrs by HPLC method
Assay type: ADME, organism-based
Parameters: time < 72 hr, route oral
Details: plasma
Recorded metric: AUC(0-t) at 72 h (ng·h/mL)
State the answer as a number, implicitly in ng·h/mL.

The recorded AUC(0-t) at 72 h for C[C@@H]([C@H](N)C(=O)N[C@H](C(=O)O)[C@H]1O[C@@H](n2ccc(=O)[nH]c2=O)[C@H](O)[C@@H]1O)[C@H](O)c1ccc(O)cn1 [NIKKOMYCIN] is 40200

====

Experiment: AUC (0 to t) in healthy human at 250 mg, po administered as single dose measured after 72 hrs by HPLC method
Conditions: plasma
Recorded metric: AUC(0-t) at 72 h (ng·h/mL)
State the answer as a number, implicitly in ng·h/mL.

The recorded AUC(0-t) at 72 h for "C[C@@H]([C@H](N)C(=O)N[C@H](C(=O)O)[C@H]1O[C@@H](n2ccc(=O)[nH]c2=O)[C@H](O)[C@@H]1O)[C@H](O)c1ccc(O)cn1" is 11300

====

Experiment: Cmax in healthy human at 500 mg, po administered as single dose measured after 72 hrs by HPLC method
Conditions: in vivo
Recorded metric: Cmax (ng/mL)
State the answer as a number, implicitly in ng/mL.

The recorded Cmax for "C[C@@H]([C@H](N)C(=O)N[C@H](C(=O)O)[C@H]1O[C@@H](n2ccc(=O)[nH]c2=O)[C@H](O)[C@@H]1O)[C@H](O)c1ccc(O)cn1" is 3990

====

Test: Relative bioavailability in healthy human at 1000 […], po administered as single dose by HPLC method
Assay type: ADME, organism-based
Details: in vivo
Recorded metric: bioavailability (%)
State the answer as a number, implicitly in %.

The recorded bioavailability for "C[C@@H]([C@H](N)C(=O)N[C@H](C(=O)O)[C@H]1O[C@@H](n2ccc(=O)[nH]c2=O)[C@H](O)[C@@H]1O)[C@H](O)c1ccc(O)cn1" is 61.6

====

Experiment: Tmax in healthy human at 500 […], po administered as single dose measured after 72 hrs by HPLC method
Format: ADME, organism-based
Design: route oral
Conditions: in vivo
Recorded metric: Tmax (h)
State the answer as a number, implicitly in h.

The recorded Tmax for C[C@@H]([C@H](N)C(=O)N[C@H](C(=O)O)[C@H]1O[C@@H](n2ccc(=O)[nH]c2=O)[C@H](O)[C@@H]1O)[C@H](O)c1ccc(O)cn1 [NIKKOMYCIN] is 3

====

Assay: AUC (0 to t) in healthy human at 1750 […], po administered as single dose measured after 72 hrs by HPLC method
Assay type: ADME, organism-based
Design: time < 72 hr, route oral
Details: plasma
Recorded metric: AUC(0-t) at 72 h
A complete answer gives the number followed by the unit.

The recorded AUC(0-t) at 72 h for "C[C@@H]([C@H](N)C(=O)N[C@H](C(=O)O)[C@H]1O[C@@H](n2ccc(=O)[nH]c2=O)[C@H](O)[C@@H]1O)[C@H](O)c1ccc(O)cn1" is 37400 ng·h/mL

====

Test: Terminal half life in healthy human at 1750 mg, po administered as single dose measured after 72 hrs by HPLC method
Conditions: in vivo, read-out: beta t1/2 (converted)
Recorded metric: half-life (min)
State the answer as a number, implicitly in min.

The recorded half-life for "C[C@@H]([C@H](N)C(=O)N[C@H](C(=O)O)[C@H]1O[C@@H](n2ccc(=O)[nH]c2=O)[C@H](O)[C@@H]1O)[C@H](O)c1ccc(O)cn1" is 127

====

Experiment: Terminal half life in healthy human at 500 mg, po administered as single dose measured after 72 hrs by HPLC method
Details: in vivo, read-out: beta t1/2 (converted)
Recorded metric: half-life (h)
State the answer as a number, implicitly in h.

The recorded half-life for "C[C@@H]([C@H](N)C(=O)N[C@H](C(=O)O)[C@H]1O[C@@H](n2ccc(=O)[nH]c2=O)[C@H](O)[C@@H]1O)[C@H](O)c1ccc(O)cn1" is 2.22
